B1: RTP4 (parent)
chain: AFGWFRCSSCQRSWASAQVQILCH

# Variants of: B1
# Experiment notes: protein stability index of a GFP-peptide fusion (GPS, HEK-293T) (PSI 1-6); higher = more stable;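 also: lentivirally expressed fusions sorted by FACS into six bins by GFP to DsRed ratio, PSI derived from sequencing read proportions per bin multiplied by bin number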
# Cond: c terminus: a fixed tail appended
Collected protein stability index values appear next to each entry.
Enter the number alone.

Task item: In one line, give reported protein stability index of the entry A17K .
Reply: 3.13

Task item: In one line, give reported protein stability index of the entry H24Y .
Reply: 3.39

Task item: In one line, give reported protein stability index of the entry H24D .
Reply: 1.97
